# Test details: Human liver microsomal stability
# Assay type: in vitro ADME
# Condition label: liver microsomes, pH 7.4
Measured attribute: microsomal CLint (µL/min/mg)
Provide only the numeric value, understood in µL/min/mg.

For O=[N+]([O-])c1ccc(/C=N/Nc2nc(Nc3ccccc3)nc(N3CCOCC3)n2)o1 the compound record lists microsomal CLint as 11.2

###

# Test details: Kinetic aqueous solubility
# Assay type: physicochemical
# Condition label: universal aqueous buffer, pH 7.4
Measured attribute: solubility at 4 h (µM)
Provide only the numeric value, understood in µM.

O=[N+]([O-])c1ccc(/C=N/Nc2nc(Nc3ccccc3)nc(N3CCOCC3)n2)o1 [JSF-2513] = 0.853

For O=[N+]([O-])c1ccc(/C=N/Nc2nc(N3CCOCC3)nc(N3CCOCC3)n2)o1 [JSF-2189] the molecule record lists solubility at 4 h as 20.2

For CC1(Nc2nc(N/N=C/c3ccc([N+](=O)[O-])o3)nc(N3CCOCC3)n2)CC1 [JSF-2625] the molecule record lists solubility at 4 h as 8.71

###

Let's look at some compounds and their measured Cmax.
# Test details: in vivo
# Condition label: female, mouse, po, 25 mg/kg
Provide only the numeric value, understood in ng/mL.

Some solved cases for reference:
O=[N+]([O-])c1ccc(/C=N/Nc2nc(Nc3ccccc3)nc(N3CCOCC3)n2)o1 = 1710
CC1(Nc2nc(N/N=C/c3ccc([N+](=O)[O-])o3)nc(N3CCOCC3)n2)CC1 = 266
O=[N+]([O-])c1ccc(/C=N/Nc2nc(N3CCC3)nc(N3CCOCC3)n2)o1 = 4200

Next, consider the following compound.
For O=[N+]([O-])c1ccc(/C=N/Nc2nc(Nc3ccccc3)nc(Nc3ccccc3)n2)o1 the compound record lists Cmax as 317

###

# Test details: in vivo
# Condition label: female, mouse, po, 25 mg/kg
Measured attribute: AUC (ng·h/mL)
Provide only the numeric value, understood in ng·h/mL.

For O=[N+]([O-])c1ccc(/C=N/Nc2nc(Nc3ccccc3)nc(Nc3ccccc3)n2)o1 the compound record lists AUC as 1150

###

# Test details: in vivo
# Condition label: female, mouse, iv, 5 mg/kg
Let's look at some compounds and their measured clearance.
Provide only the numeric value, understood in L/h/kg.

Some solved cases for reference:
O=[N+]([O-])c1ccc(/C=N/Nc2nc(N3CCC3)nc(N3CCOCC3)n2)o1 = 3.7
O=[N+]([O-])c1ccc(/C=N/Nc2nc(Nc3ccccc3)nc(N3CCOCC3)n2)o1 = 2.23

Next, consider the following compound.
For CC1(Nc2nc(N/N=C/c3ccc([N+](=O)[O-])o3)nc(N3CCOCC3)n2)CC1 the compound record lists clearance as 5.28

###

# Test details: in vivo
# Condition label: female, mouse, po, 25 mg/kg
Measured attribute: bioavailability (%)
Provide only the numeric value, understood in %.

O=[N+]([O-])c1ccc(/C=N/Nc2nc(N3CCC3)nc(N3CCOCC3)n2)o1 [JSF-2619] = 49.2

For CC1(Nc2nc(N/N=C/c3ccc([N+](=O)[O-])o3)nc(N3CCOCC3)n2)CC1 [JSF-2625] the compound record lists bioavailability as 11.4
